Data origin, for the record: PubChem BioAssay AID1963842

# Tested on: 677734-321-R-J1-PDC complex spheroid viability
# procedure-text: Anticancer human tumor 677734-321-R-J1-PDC patient-derived soft tissue sarcoma cell line growth inhibition [POLQ]; active means viability on the fitted dose curve at most 10% of control; inactive means the rest
# experimental-conditions: second compound 0.0316 µM; first compound 3.16 µM
Outcome codes: active, inactive

| molecule | assigned-class |
| --- | --- |
| C=CC(=O)N1CCN(c2nc(=O)n(-c3c(C)ccnc3C(C)C)c3nc(-c4c(O)cccc4F)c(F)cc23)C(C)C1 (centres undefined) + Nc1ccc(C#CCN(C(=O)Cc2ncc(C(F)(F)F)cc2C(F)(F)F)c2ccc(F)cc2)nn1 | inactive |
| CCc1cc2c(N3CCc4c(cc(Cn5ccnc5)cc4-c4cn(C)nc4C(F)(F)F)C3=O)cc(C)nc2c(OC)n1 + COC1C(OC(N)=O)C(O)C(Oc2ccc3c(O)c(NC(=O)c4ccc(O)c(CC=C(C)C)c4)c(=O)oc3c2C)OC1(C)C | inactive |
| CCc1cc2c(N3CCc4c(cc(Cn5ccnc5)cc4-c4cn(C)nc4C(F)(F)F)C3=O)ccnc2c(OC)n1 + Cc1cccc(N(C)C(=O)C2C(O)CCN2c2nc(C)cc(C(F)(F)F)c2C#N)c1 | inactive |
| O=c1[nH]cc(F)c(=O)[nH]1 + Nc1ccc(C#CCN(C(=O)Cc2ncc(C(F)(F)F)cc2C(F)(F)F)c2ccc(F)cc2)nn1 | inactive |
| Nc1ccn(C2OC(CO)C(O)C2(F)F)c(=O)n1 (centres undefined) + COC1C(OC(N)=O)C(O)C(Oc2ccc3c(O)c(NC(=O)c4ccc(O)c(CC=C(C)C)c4)c(=O)oc3c2C)OC1(C)C | inactive |
| CC1COCCN1c1cc(C2(S(C)(=N)=O)CC2)nc(-c2ccnc3[nH]ccc23)n1 (centres undefined) + COC1C(OC(N)=O)C(O)C(Oc2ccc3c(O)c(NC(=O)c4ccc(O)c(CC=C(C)C)c4)c(=O)oc3c2C)OC1(C)C | inactive |
| CC1COCCN1c1cc(C2(O)CC3CCC(C2)O3)c2cnn(-c3ccn[nH]3)c2n1 (centres undefined) + Nc1ccc(C#CCN(C(=O)Cc2ncc(C(F)(F)F)cc2C(F)(F)F)c2ccc(F)cc2)nn1 | active |
| CCc1cc2c(N3CCc4c(cc(Cn5ccnc5)cc4-c4cn(C)nc4C(F)(F)F)C3=O)cc(C)nc2c(OC)n1 + Cc1cccc(N(C)C(=O)C2C(O)CCN2c2nc(C)cc(C(F)(F)F)c2C#N)c1 | inactive |
| COc1cccc2c1C(=O)c1c(O)c3c(c(O)c1C2=O)CC(O)(C(=O)CO)CC3OC1CC(N)C(O)C(C)O1 (centres undefined) + Cc1cccc(N(C)C(=O)C2C(O)CCN2c2nc(C)cc(C(F)(F)F)c2C#N)c1 | active |

----------
viability, T/C reference
# Tested on: 677734-321-R-J1-PDC complex spheroid viability
# procedure-text: Anticancer human tumor 677734-321-R-J1-PDC cell line growth inhibition [POLQ];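 further: spheroids exposed to compounds for one week; 100% = vehicle DMSO treated spheroids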
# experimental-conditions: second compound 10 µM; first compound 0.000316 µM; hits give low values
property-measured: viability, T/C (%)

| compound | system-tested | unit-name | reported |
| --- | --- | --- | --- |
| CC[C@@]1(O)C(=O)OCc2c1cc1n(c2=O)Cc2cc3c(CN(C)C)c(O)ccc3nc2-1 + COC1C(OC(N)=O)C(O)C(Oc2ccc3c(O)c(NC(=O)c4ccc(O)c(CC=C(C)C)c4)c(=O)oc3c2C)OC1(C)C | 677734-321-R-J1-PDC complex spheroid viability | % | 109 |
| CC[C@@]1(O)C(=O)OCc2c1cc1n(c2=O)Cc2cc3c(CN(C)C)c(O)ccc3nc2-1 + Nc1ccc(C#CCN(C(=O)Cc2ncc(C(F)(F)F)cc2C(F)(F)F)c2ccc(F)cc2)nn1 | 677734-321-R-J1-PDC complex spheroid viability | % | 135 |
| CC[C@@]1(O)C(=O)OCc2c1cc1n(c2=O)Cc2cc3c(CN(C)C)c(O)ccc3nc2-1 + Cc1cccc(N(C)C(=O)C2C(O)CCN2c2nc(C)cc(C(F)(F)F)c2C#N)c1 | 677734-321-R-J1-PDC complex spheroid viability | % | 108 |
| Cn1ncnc1[C@H]1c2n[nH]c(=O)c3cc(F)cc(c23)N[C@@H]1c1ccc(F)cc1 + Nc1ccc(C#CCN(C(=O)Cc2ncc(C(F)(F)F)cc2C(F)(F)F)c2ccc(F)cc2)nn1 | 677734-321-R-J1-PDC complex spheroid viability | % | 115 |
| Cn1ncnc1[C@H]1c2n[nH]c(=O)c3cc(F)cc(c23)N[C@@H]1c1ccc(F)cc1 + Cc1cccc(N(C)C(=O)C2C(O)CCN2c2nc(C)cc(C(F)(F)F)c2C#N)c1 | 677734-321-R-J1-PDC complex spheroid viability | % | 103 |
| Cn1ncnc1[C@H]1c2n[nH]c(=O)c3cc(F)cc(c23)N[C@@H]1c1ccc(F)cc1 + COC1C(OC(N)=O)C(O)C(Oc2ccc3c(O)c(NC(=O)c4ccc(O)c(CC=C(C)C)c4)c(=O)oc3c2C)OC1(C)C | 677734-321-R-J1-PDC complex spheroid viability | % | 103 |

----------
viability, T/C reference
# Tested on: 677734-321-R-J1-PDC complex spheroid viability
# procedure-text: Anticancer human tumor 677734-321-R-J1-PDC cell line growth inhibition [POLQ];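 further: spheroids exposed to compounds for one week; 100% = vehicle DMSO treated spheroids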
# experimental-conditions: second compound 0.1 µM; first compound 1 µM; hits give low values

| compound | viability, T/C, % |
| --- | --- |
| C=CCn1c(=O)c2cnc(Nc3ccc(N4CCN(C)CC4)cc3)nc2n1-c1cccc(C(C)(C)O)n1 + Nc1ccc(C#CCN(C(=O)Cc2ncc(C(F)(F)F)cc2C(F)(F)F)c2ccc(F)cc2)nn1 | 35.1 |
| O=C(Nc1ccc(O)c(NS(=O)(=O)c2ccc(F)cc2)c1)c1ccc(-c2ccccc2)cc1 + Cc1cccc(N(C)C(=O)C2C(O)CCN2c2nc(C)cc(C(F)(F)F)c2C#N)c1 | 92.7 |
| C#Cc1c(F)ccc2cc(O)cc(-c3ncc4c(N5CC6CCC(C5)N6)nc(OCC56CCCN5CC(F)C6)nc4c3F)c12 (stereo not given) + COC1C(OC(N)=O)C(O)C(Oc2ccc3c(O)c(NC(=O)c4ccc(O)c(CC=C(C)C)c4)c(=O)oc3c2C)OC1(C)C | 99.7 |
| CNCc1ccc(-c2[nH]c3cc(F)cc4c3c2CCNC4=O)cc1 + COC1C(OC(N)=O)C(O)C(Oc2ccc3c(O)c(NC(=O)c4ccc(O)c(CC=C(C)C)c4)c(=O)oc3c2C)OC1(C)C | 109 |
| COc1cc2cc(C(=O)CCC(=O)O)sc2cc1OC + Cc1cccc(N(C)C(=O)C2C(O)CCN2c2nc(C)cc(C(F)(F)F)c2C#N)c1 | 107 |

----------
viability, T/C reference
# Tested on: 677734-321-R-J1-PDC complex spheroid viability
# procedure-text: Anticancer human tumor 677734-321-R-J1-PDC cell line growth inhibition [POLQ];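 further: spheroids exposed to compounds for one week; 100% = vehicle DMSO treated spheroids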
# experimental-conditions: second compound 10 µM; first compound 0.316 µM; hits give low values

| molecule | unit-name | viability, T/C |
| --- | --- | --- |
| CNCc1ccc(-c2[nH]c3cc(F)cc4c3c2CCNC4=O)cc1 + COC1C(OC(N)=O)C(O)C(Oc2ccc3c(O)c(NC(=O)c4ccc(O)c(CC=C(C)C)c4)c(=O)oc3c2C)OC1(C)C | % | 106 |
| O=c1[nH]cc(F)c(=O)[nH]1 + Nc1ccc(C#CCN(C(=O)Cc2ncc(C(F)(F)F)cc2C(F)(F)F)c2ccc(F)cc2)nn1 | % | 95.5 |
| CC1COCCN1c1cc(C2(O)CC3CCC(C2)O3)c2cnn(-c3ccn[nH]3)c2n1 (stereo unspecified) + Nc1ccc(C#CCN(C(=O)Cc2ncc(C(F)(F)F)cc2C(F)(F)F)c2ccc(F)cc2)nn1 | % | 7.13 |
| CNCc1ccc(-c2[nH]c3cc(F)cc4c3c2CCNC4=O)cc1 + Cc1cccc(N(C)C(=O)C2C(O)CCN2c2nc(C)cc(C(F)(F)F)c2C#N)c1 | % | 104 |
| CCCS(=O)(=O)Nc1ccc(F)c(C(=O)c2c[nH]c3ncc(-c4ccc(Cl)cc4)cc23)c1F + Nc1ccc(C#CCN(C(=O)Cc2ncc(C(F)(F)F)cc2C(F)(F)F)c2ccc(F)cc2)nn1 | % | 96.1 |
| COc1cc(C2c3cc4c(cc3C(OC3OC5COC(C)OC5C(O)C3O)C3COC(=O)C23)OCO4)cc(OC)c1O (stereo unspecified) + Cc1cccc(N(C)C(=O)C2C(O)CCN2c2nc(C)cc(C(F)(F)F)c2C#N)c1 | % | 65.8 |

----------
# System: 677734-321-R-J1-PDC complex spheroid viability
# procedure-text: Anticancer human tumor 677734-321-R-J1-PDC cell line growth inhibition [POLQ]; active = viability on the fitted dose curve at most 10% of control; inactive = the rest;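 further: spheroids exposed to compounds for one week; 100% = vehicle DMSO treated spheroids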
# experimental-conditions: second compound 0.316 µM; first compound 3.16 µM
Outcome codes: Y for active, N for inactive

| compound | system-tested | assigned-class |
| --- | --- | --- |
| C=CC(=O)N1CCN(c2nc(=O)n(-c3c(C)ccnc3C(C)C)c3nc(-c4c(O)cccc4F)c(F)cc23)C(C)C1 (stereo not given) + Nc1ccc(C#CCN(C(=O)Cc2ncc(C(F)(F)F)cc2C(F)(F)F)c2ccc(F)cc2)nn1 | 677734-321-R-J1-PDC complex spheroid viability | N |
| CCc1cc2c(N3CCc4c(cc(Cn5ccnc5)cc4-c4cn(C)nc4C(F)(F)F)C3=O)ccnc2c(OC)n1 + Nc1ccc(C#CCN(C(=O)Cc2ncc(C(F)(F)F)cc2C(F)(F)F)c2ccc(F)cc2)nn1 | 677734-321-R-J1-PDC complex spheroid viability | N |
| COc1cc2cc(C(=O)CCC(=O)O)sc2cc1OC + Nc1ccc(C#CCN(C(=O)Cc2ncc(C(F)(F)F)cc2C(F)(F)F)c2ccc(F)cc2)nn1 | 677734-321-R-J1-PDC complex spheroid viability | N |
| C#Cc1c(F)ccc2cc(O)cc(-c3ncc4c(N5CC6CCC(C5)N6)nc(OCC56CCCN5CC(F)C6)nc4c3F)c12 (stereo not given) + COC1C(OC(N)=O)C(O)C(Oc2ccc3c(O)c(NC(=O)c4ccc(O)c(CC=C(C)C)c4)c(=O)oc3c2C)OC1(C)C | 677734-321-R-J1-PDC complex spheroid viability | N |
| CC(C)n1c(=O)n(C)c2cnc3cc(F)c(-c4ccc(OCCCN5CCCCC5)nc4)cc3c21 + Cc1cccc(N(C)C(=O)C2C(O)CCN2c2nc(C)cc(C(F)(F)F)c2C#N)c1 | 677734-321-R-J1-PDC complex spheroid viability | N |
| CNCc1ccc(-c2[nH]c3cc(F)cc4c3c2CCNC4=O)cc1 + Nc1ccc(C#CCN(C(=O)Cc2ncc(C(F)(F)F)cc2C(F)(F)F)c2ccc(F)cc2)nn1 | 677734-321-R-J1-PDC complex spheroid viability | N |
| COc1ccc([C@@H](O)c2cc(-c3ncnc4cc(N5CCOCC5)ccc34)c(F)cc2Cl)nn1 + COC1C(OC(N)=O)C(O)C(Oc2ccc3c(O)c(NC(=O)c4ccc(O)c(CC=C(C)C)c4)c(=O)oc3c2C)OC1(C)C | 677734-321-R-J1-PDC complex spheroid viability | N |
| CC1COCCN1c1cc(C2(O)CC3CCC(C2)O3)c2cnn(-c3ccn[nH]3)c2n1 (stereo not given) + COC1C(OC(N)=O)C(O)C(Oc2ccc3c(O)c(NC(=O)c4ccc(O)c(CC=C(C)C)c4)c(=O)oc3c2C)OC1(C)C | 677734-321-R-J1-PDC complex spheroid viability | N |
| CNCc1ccc(-c2[nH]c3cc(F)cc4c3c2CCNC4=O)cc1 + COC1C(OC(N)=O)C(O)C(Oc2ccc3c(O)c(NC(=O)c4ccc(O)c(CC=C(C)C)c4)c(=O)oc3c2C)OC1(C)C | 677734-321-R-J1-PDC complex spheroid viability | N |
| COc1cccc2c1C(=O)c1c(O)c3c(c(O)c1C2=O)CC(O)(C(=O)CO)CC3OC1CC(N)C(O)C(C)O1 (stereo not given) + Cc1cccc(N(C)C(=O)C2C(O)CCN2c2nc(C)cc(C(F)(F)F)c2C#N)c1 | 677734-321-R-J1-PDC complex spheroid viability | Y |
